test system: Mycoplasmoides gallisepticum; test: Antimycoplasmal activity against Mycoplasma gallisepticum K514 with the extra addition of copper (40 uM); format: functional
quantity.kind: MIC (µM)

{"structure.notation": "O=C(Nc1nc(-c2ccccn2)cc2ccccc12)c1ccc(Cl)cc1", "target.under.test": "Mycoplasmoides gallisepticum", "value.observed": 0.35}
{"structure.notation": "Cc1cc(C)cc(C(=O)Nc2nc(-c3ccccn3)cc3ccccc23)c1", "target.under.test": "Mycoplasmoides gallisepticum", "value.observed": 0.39}
{"structure.notation": "Cc1ccc(C(=O)Nc2nc(-c3ccccn3)cc3ccccc23)cc1", "target.under.test": "Mycoplasmoides gallisepticum", "value.observed": 0.19}

1 = CC(=O)Nc1nc(-c2ccccn2)cc2ccccc12
2 = Nc1nc(-c2ccccn2)cc2ccccc12
3 = COc1ccc(C(=O)Nc2nc(-c3ccccn3)cc3ccccc23)cc1
query: Ascending by MIC, please. Please write the labels in the order that was asked for.
result: 3, 2, 1
